Values compiled from patent US20200369728A1.

Please go through the items and note down their caspase 3 μM.
test system: Caspase 3; experiment: Caspase 3 detection assay in SJSA1 cells; type: cell-based; details: 3 μM, SJSA1, 48 h, Caspase 3 activation over DMSO-treated cells
Bridge positions count the residues as written; N and C are the ends. Square brackets hold non-standard residues; d marks the D form. Peptide text beside a SMILES is read from it. R8 = C=CCCCCCC[C@@](C)(N)C(=O)O; Cba = N[C@@H](CC1CCC1)C(=O)O; hLeu = CC(C)CC[C@H](N)C(=O)O; S5 = C=CCCC[C@](C)(N)C(=O)O; Nle = CCCC[C@H](N)C(=O)O
Answer with the value's number alone.

Query: Could you share what caspase 3 μM was measured for CC(=O)N[C@@H](CCC(=O)O)C(=O)N[C@H](C(=O)N[C@@H](Cc1ccccc1)C(=O)N[C@]1(C)CCCCCCC=CCCC[C@@](C)(C(=O)N[C@@H](CO)C(=O)N[C@@H](C)C(=O)N[C@@H](C)C(N)=O)NC(=O)[C@H](CC(C)C)NC(=O)[C@H](CCC(N)=O)NC(=O)[C@H](C)NC(=O)[C@H](Cc2c[nH]c3ccccc23)NC(=O)[C@H](Cc2ccc(O)cc2)NC(=O)[C@H](C(C)C)NC1=O)[C@@H](C)O [compound 125] (Ac-ETF[R8]VYWAQL[S5]SAA-NH2; staple 4-11) , tested on Caspase 3?
Response: 3

Query: Checklist item: caspase 3 μM tested on Caspase 3, entry CC[C@H](C)[C@H](NC(=O)[C@H](C)NC(=O)[C@H](C)NC(=O)[C@]1(C)CCCC=CCCCCCC[C@@](C)(NC(=O)[C@H](Cc2ccccc2)NC(=O)[C@@H](NC(=O)[C@H](CC(C)C)NC(C)=O)[C@@H](C)O)C(=O)N[C@@H](C)C(=O)N[C@@H](Cc2ccc(O)cc2)C(=O)N[C@@H](Cc2c[nH]c3ccccc23)C(=O)N[C@@H](C)C(=O)N[C@@H](CCC(N)=O)C(=O)N[C@@H](CC(C)C)C(=O)N1)C(=O)N[C@H](CC(C)C)C(N)=O (single isomer, unassigned) , value?
Response: 1

Query: Quick check: caspase 3 μM on Caspase 3, item CC(=O)N[C@@H](CC(C)C)C(=O)N[C@H](C(=O)N[C@@H](Cc1ccccc1)C(=O)N[C@]1(C)CCCCCC/C=C\CCC[C@@](C)(C(=O)N[C@@H](CO)C(=O)N[C@@H](C)C(=O)N[C@@H](C)C(N)=O)NC(=O)[C@H](CCC(C)C)NC(=O)[C@H](CCC(N)=O)NC(=O)[C@H](C)NC(=O)[C@H](Cc2c[nH]c3ccccc23)NC(=O)[C@H](Cc2ccc(O)cc2)NC(=O)[C@H](C)NC1=O)[C@@H](C)O [compound 114] (Ac-LTF[R8]AYWAQ[hLeu][S5]SAA-NH2; staple (Z) 4-11) ?
Response: 6

Query: Give caspase 3 μM (Caspase 3) of the following compound: CC(=O)N[C@@H](CC(C)C)C(=O)N[C@H](C(=O)N[C@@H](Cc1ccc(F)c(F)c1)C(=O)N[C@]1(C)CCCCCC/C=C/CCC[C@@](C)(C(=O)N[C@@H](CO)C(=O)N[C@@H](C)C(=O)N[C@@H](C)C(N)=O)NC(=O)[C@H](CCC(C)C)NC(=O)[C@H](CCC(N)=O)NC(=O)[C@H](C)NC(=O)[C@H](Cc2c[nH]c3ccccc23)NC(=O)[C@H](Cc2ccc(O)cc2)NC(=O)[C@H](CCC(=O)O)NC1=O)[C@@H](C)O
Response: 10

Query: // fetch Caspase 3 caspase 3 μM for CC(=O)N[C@@H](CC(C)C)C(=O)N[C@H](C(=O)N[C@@H](Cc1ccccc1)C(=O)N[C@]1(C)CCCCCCC=CCCC[C@@](C)(C(=O)N[C@@H](CO)C(=O)N[C@@H](CC(C)C)C(=O)N[C@@H](C)C(N)=O)NC(=O)[C@H](CC(C)C)NC(=O)[C@H](CCC(N)=O)NC(=O)[C@H](C)NC(=O)[C@H](Cc2c[nH]c3ccccc23)NC(=O)[C@H](Cc2ccc(O)cc2)NC(=O)[C@H](C)NC1=O)[C@@H](C)O (single isomer, unassigned)
Response: 2

Query: Observed caspase 3 μM on Caspase 3 for CC(=O)N[C@@H](CC(C)C)C(=O)N[C@H](C(=O)N[C@@H](Cc1ccccc1)C(=O)N[C@]1(C)CCCCCCC=CCCC[C@@](C)(C(=O)N[C@@H](C)C(=O)N[C@@H](C)C(=O)N[C@@H](C)C(=O)N[C@H](C)C(N)=O)NC(=O)[C@H](CC(C)C)NC(=O)[C@H](CCC(N)=O)NC(=O)[C@H](C)NC(=O)[C@H](Cc2c[nH]c3ccccc23)NC(=O)[C@H](Cc2ccc(O)cc2)NC(=O)[C@H](C)NC1=O)[C@@H](C)O (single isomer, unassigned) , please.
Response: 2

Query: What caspase 3 μM appears in the records for this compound with Caspase 3? CC(=O)N[C@@H](CC(C)C)C(=O)N[C@H](C(=O)N[C@@H](Cc1ccccc1)C(=O)N[C@]1(C)CCCCCC/C=C/CCC[C@@](C)(C(=O)N[C@@H](C)C(=O)N[C@@H](C)C(=O)N[C@@H](C)C(=O)N[C@@H](C)C(=O)N[C@@H](C)C(=O)N[C@H](C)C(N)=O)NC(=O)[C@H](CC(C)C)NC(=O)[C@H](CCC(N)=O)NC(=O)[C@H](C)NC(=O)[C@H](Cc2c[nH]c3ccccc23)NC(=O)[C@H](Cc2ccc(O)cc2)NC(=O)[C@H](CCC(=O)O)NC1=O)[C@@H](C)O
Response: 11

Query: Any idea what caspase 3 μM came out for CCCC[C@H](NC(=O)[C@H](C)NC(=O)[C@H](CO)NC(=O)[C@]1(C)CCCC=CCCCCCC[C@@](C)(NC(=O)[C@H](Cc2ccccc2)NC(=O)[C@@H](NC(=O)[C@H](CC(C)C)NC(C)=O)[C@@H](C)O)C(=O)N[C@@H](CCC(=O)O)C(=O)N[C@@H](Cc2ccc(O)cc2)C(=O)N[C@@H](Cc2c[nH]c3ccccc23)C(=O)N[C@@H](CO)C(=O)N[C@@H](CCC(N)=O)C(=O)N[C@@H](CC2CCC2)C(=O)N1)C(=O)N[C@@H](C)C(N)=O [compound 245] (Ac-LTF[R8]EYWSQ[Cba][S5]SA[Nle]A-NH2; staple 4-11) on Caspase 3?
Response: 3

Query: Please provide the recorded caspase 3 μM for CC[C@H](C)[C@H](NC(=O)[C@H](C)NC(=O)[C@H](C)NC(=O)[C@]1(C)CCCC=CCCCCCC[C@@](C)(NC(=O)[C@H](Cc2ccccc2)NC(=O)[C@@H](NC(=O)[C@H](CCC(=O)O)NC(C)=O)[C@@H](C)O)C(=O)N[C@@H](CCC(=O)O)C(=O)N[C@@H](Cc2c[nH]cn2)C(=O)N[C@@H](Cc2c[nH]c3ccccc23)C(=O)N[C@@H](C)C(=O)N[C@@H](CCC(N)=O)C(=O)N[C@@H](CC(C)C)C(=O)N1)C(=O)N[C@H](C)C(N)=O (single isomer, unassigned) , tested on Caspase 3.
Response: 5
